B1: library; a variant is named by its letters at N, in order (parent)
chain: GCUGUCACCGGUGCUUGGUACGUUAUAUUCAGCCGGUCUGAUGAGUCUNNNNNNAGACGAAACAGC

Variants of: B1
Assay: normalized RNA/DNA level without ligand (relative to sTRSVctl = 100) (log10 (% of sTRSVctl)); HEK293T overexpressing SLC46A1; higher = less ribozyme self-cleavage, higher mRNA level
Details: without (6R,S)-folinic acid; ligand present: no
Values of normalized RNA/DNA level without ligand (log10) greater than or equal to 2 map to met; values below map to not met.

chain: GCUGUCACCGGUGCUUGGUACGUUAUAUUCAGCCGGUCUGAUGAGUCUGGCGGAAGACGAAACAGC [GGCGGA]
assigned-label: met
--
chain: GCUGUCACCGGUGCUUGGUACGUUAUAUUCAGCCGGUCUGAUGAGUCUUAGUCGAGACGAAACAGC [UAGUCG]
assigned-label: not met
--
chain: GCUGUCACCGGUGCUUGGUACGUUAUAUUCAGCCGGUCUGAUGAGUCUGGCCCGAGACGAAACAGC [GGCCCG]
assigned-label: met
--
chain: GCUGUCACCGGUGCUUGGUACGUUAUAUUCAGCCGGUCUGAUGAGUCUCCUAAGAGACGAAACAGC [CCUAAG]
assigned-label: not met
--
chain: GCUGUCACCGGUGCUUGGUACGUUAUAUUCAGCCGGUCUGAUGAGUCUACCGAGAGACGAAACAGC [ACCGAG]
assigned-label: not met
--
chain: GCUGUCACCGGUGCUUGGUACGUUAUAUUCAGCCGGUCUGAUGAGUCUUAAUGUAGACGAAACAGC [UAAUGU]
assigned-label: not met
--
chain: GCUGUCACCGGUGCUUGGUACGUUAUAUUCAGCCGGUCUGAUGAGUCUGGCGCUAGACGAAACAGC [GGCGCU]
assigned-label: met
--
chain: GCUGUCACCGGUGCUUGGUACGUUAUAUUCAGCCGGUCUGAUGAGUCUAGUUCCAGACGAAACAGC [AGUUCC]
assigned-label: met
--
chain: GCUGUCACCGGUGCUUGGUACGUUAUAUUCAGCCGGUCUGAUGAGUCUAAAUGGAGACGAAACAGC [AAAUGG]
assigned-label: not met
--
chain: GCUGUCACCGGUGCUUGGUACGUUAUAUUCAGCCGGUCUGAUGAGUCUAGCGUGAGACGAAACAGC [AGCGUG]
assigned-label: not met
--
chain: GCUGUCACCGGUGCUUGGUACGUUAUAUUCAGCCGGUCUGAUGAGUCUAUCGCGAGACGAAACAGC [AUCGCG]
assigned-label: not met
--
chain: GCUGUCACCGGUGCUUGGUACGUUAUAUUCAGCCGGUCUGAUGAGUCUGAAGAGAGACGAAACAGC [GAAGAG]
assigned-label: not met

These measurements were taken from the supplement of paper PMC6757056.
